Reported logP by item:
test: log P by HPLC on reversed-phase column (C 18), EEC Directive 79/831 Annex V.A8; assay type: physicochemical; details: Table 1; HPLC, 0.1% aqueous formic acid and acetonitrile, 40° C.; single value, or first value of a mixture of two diastereoisomers
measure: logP

compound	observed_value
Cn1nc(C(F)F)c(C(=S)N2CCCC2C2CCc3c(F)cccc32)c1F (stereo not shown)	4.01
Cn1nc(C(F)F)c(C(=O)N2CCCC2C2CCc3cc(F)ccc32)c1F (mixture of isomers)	3.29
Cn1nc(C(F)F)c(C(=O)N2CCCC2C2CCc3ccc(C(C)(C)C)cc32)c1Cl (stereo not shown)	4.82
Cn1cc(C(=O)N2CCCC2C2CCc3ccc(C(C)(C)C)cc32)c(C(F)F)n1 (stereo not shown)	4.16
Cn1nc(C(F)F)c(C(=O)N2CCCCC2C2CCCCc3ccccc32)c1F (mixture of isomers)	3.96
Cn1nc(C(F)F)c(C(=O)N2CCCC2C2CCc3ccc(Cl)cc32)c1F (mixture of isomers)	3.68
Cn1cc(C(=O)N2CCCC2C2CCc3cc(F)cc(F)c32)c(C(F)(F)F)c1 (single isomer, unassigned) [I.40]	3.70
Cn1nc(C(F)F)c(C(=O)N2CCCC2C2CCc3c(F)cccc32)c1Cl (stereo not shown)	3.48
Cn1nc(C(F)F)c(C(=O)N2CCCCC2C2CCc3ccccc32)c1F (mixture of isomers)	3.44
Cn1cc(C(=O)N2CCCCC2C2CCCc3ccccc32)c(C(F)F)n1 (stereo not shown)	3.17
O=C(c1ccsc1Br)N1CCCC1C1CCc2c(F)cccc21 (single isomer, unassigned) [I.05]	3.96
Cn1cc(C(=O)N2CCCC2C2CCc3cc(F)cc(F)c32)c(C(F)F)n1 (stereo not shown)	2.96
Cn1cc(C(=O)N2CCCC2C2CCc3ccc(Cl)cc32)c(C(F)F)n1 (mixture of isomers)	3.19
Cc1nc(C(F)F)c(C(=O)N2CCCC2C2CCc3cc(F)cc(F)c32)s1 (single isomer, unassigned) [I.37]	3.52
Cn1nc(C(F)F)c(C(=O)N2CCCC2C2CCc3cc(Cl)cc(Cl)c32)c1F (stereo not shown)	4.14
Cn1nc(C(F)F)c(C(=O)N2CCCCC2C2CCCc3ccccc32)c1F (stereo not shown)	3.67
